- Test system: MCF7
- procedure-summary: Cytotoxicity against human MCF7 cells assessed as inhibition of metabolic activity after 48 hrs by MTT assay
- Type: functional, cell-based
- test-settings: MCF7, 48 h
pIC50: −log10 of the molar value.
Reported pIC50 values for the following compounds.

smiles	pIC50
CCOP(=O)(OCC)c1c2c(n(C)c1O)C(=O)c1ccccc1C2=O	4.30
CCOP(=O)(OCC)c1c2c(n(Cc3ccccc3Cl)c1O)C(=O)c1ccccc1C2=O	4.19
CCOP(=O)(OCC)c1c(-c2ccccc2)oc2c1C(=O)c1ccccc1C2=O	5.62
CCOP(=O)(OCC)c1c2c(n(C3CC3)c1O)C(=O)c1ccccc1C2=O	3.99
CCOP(=O)(OCC)c1c(-c2ccccc2Cl)oc2c1C(=O)c1ccccc1C2=O	5.63
CCOP(=O)(OCC)c1c(-c2cccnc2Cl)oc2c1C(=O)c1ccccc1C2=O	5.59
CCOP(=O)(O)c1c(-c2ccccc2Cl)oc2c1C(=O)c1ccccc1C2=O	3.82
CCOP(=O)(OCC)c1c(-c2ccc(Cl)cc2Cl)oc2c1C(=O)c1ccccc1C2=O	5.54
CCCCCCn1c(O)c(P(=O)(OCC)OCC)c2c1C(=O)c1ccccc1C2=O	4.71
CCOP(=O)(OCC)c1c(-c2cc(F)c(Cl)nc2Cl)oc2c1C(=O)c1ccccc1C2=O	5.55
CCCn1c(O)c(P(=O)(OCC)OCC)c2c1C(=O)c1ccccc1C2=O	4.36
CCOP(=O)(OCC)c1c(C)oc2c1C(=O)c1ccccc1C2=O	5.24

Source of measurements: ChEMBL document CHEMBL4428039
